- target_of_assay: Dα5 + Dα6 nAChR (Drosophila melanogaster, UniProt Q8T7V5+Q9VL79)
- Construct: gene nAChRalpha5; intact subunits co-injected as cRNA in Xenopus oocytes with C. elegans RIC-3; pairwise heteromer not proven (may be homomeric Dα5); stoichiometry unknown
- Sequence (Q8T7V5 1-807): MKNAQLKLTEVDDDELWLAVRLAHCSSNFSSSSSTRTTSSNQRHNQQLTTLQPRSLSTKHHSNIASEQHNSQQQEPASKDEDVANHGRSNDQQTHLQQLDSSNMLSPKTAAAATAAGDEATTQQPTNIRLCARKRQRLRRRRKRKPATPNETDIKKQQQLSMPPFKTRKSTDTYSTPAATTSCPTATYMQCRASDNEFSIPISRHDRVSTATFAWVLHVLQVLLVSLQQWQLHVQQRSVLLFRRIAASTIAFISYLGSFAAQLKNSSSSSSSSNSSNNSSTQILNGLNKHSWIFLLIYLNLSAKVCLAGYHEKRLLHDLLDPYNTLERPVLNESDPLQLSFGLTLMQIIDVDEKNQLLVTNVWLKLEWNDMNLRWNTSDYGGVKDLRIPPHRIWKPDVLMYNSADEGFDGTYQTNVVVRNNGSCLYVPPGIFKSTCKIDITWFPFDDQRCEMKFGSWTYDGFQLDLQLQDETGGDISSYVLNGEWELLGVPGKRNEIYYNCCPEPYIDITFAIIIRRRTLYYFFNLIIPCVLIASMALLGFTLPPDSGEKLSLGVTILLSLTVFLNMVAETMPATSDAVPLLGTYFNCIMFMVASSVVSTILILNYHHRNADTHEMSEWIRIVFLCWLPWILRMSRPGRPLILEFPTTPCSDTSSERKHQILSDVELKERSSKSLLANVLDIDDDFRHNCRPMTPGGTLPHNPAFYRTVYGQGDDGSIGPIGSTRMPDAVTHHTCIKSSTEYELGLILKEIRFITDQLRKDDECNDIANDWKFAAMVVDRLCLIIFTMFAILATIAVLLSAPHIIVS
- Sequence (Q9VL79 28-494): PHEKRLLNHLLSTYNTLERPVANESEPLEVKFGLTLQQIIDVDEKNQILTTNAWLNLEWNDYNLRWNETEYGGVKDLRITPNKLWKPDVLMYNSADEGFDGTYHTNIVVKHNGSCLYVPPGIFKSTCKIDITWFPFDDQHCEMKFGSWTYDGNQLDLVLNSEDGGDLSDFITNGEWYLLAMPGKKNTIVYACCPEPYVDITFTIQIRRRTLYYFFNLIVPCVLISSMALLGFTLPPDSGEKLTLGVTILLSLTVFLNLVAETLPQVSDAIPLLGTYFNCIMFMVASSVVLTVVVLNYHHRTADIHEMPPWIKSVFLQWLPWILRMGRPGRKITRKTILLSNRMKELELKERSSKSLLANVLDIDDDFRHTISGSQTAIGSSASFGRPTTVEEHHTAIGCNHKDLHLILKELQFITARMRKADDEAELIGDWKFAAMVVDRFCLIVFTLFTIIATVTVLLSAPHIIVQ
- protocol_notes: two-electrode voltage clamp, Xenopus oocytes
- Assay type: cell-based
- condition_summary: read-out: EC 50(μM or nM)*
result_type: EC50 (µM)
Hi! Could you send only the number? It should be in µM, unit omitted.

Fill in the blank: the reported EC50 of CC(=O)OCC[N+](C)(C)C [acetylcholine] is ____.
8.6

---

- target_of_assay: homomeric Dα7 nAChR (Drosophila melanogaster, UniProt Q9VWI9)
- Construct: gene nAChRalpha7; intact subunit; pGEMHE cRNA in Xenopus oocytes with chaperone C. elegans RIC-3; homopentamer
- Sequence (Q9VWI9 59-560): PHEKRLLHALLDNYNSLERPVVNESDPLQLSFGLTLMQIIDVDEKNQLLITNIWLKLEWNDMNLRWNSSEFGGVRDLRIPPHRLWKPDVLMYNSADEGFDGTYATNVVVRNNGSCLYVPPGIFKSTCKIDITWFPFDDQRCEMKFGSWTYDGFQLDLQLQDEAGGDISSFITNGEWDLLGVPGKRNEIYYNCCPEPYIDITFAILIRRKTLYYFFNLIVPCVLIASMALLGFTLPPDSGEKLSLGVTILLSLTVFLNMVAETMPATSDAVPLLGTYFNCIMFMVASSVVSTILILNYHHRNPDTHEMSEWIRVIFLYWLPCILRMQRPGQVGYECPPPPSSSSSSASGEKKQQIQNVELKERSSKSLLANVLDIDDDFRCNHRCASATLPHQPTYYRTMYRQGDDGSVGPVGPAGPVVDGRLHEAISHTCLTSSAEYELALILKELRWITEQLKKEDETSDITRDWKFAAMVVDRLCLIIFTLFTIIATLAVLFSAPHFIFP
- protocol_notes: two-electrode voltage clamp, Xenopus oocytes
- Assay type: cell-based
- condition_summary: read-out: EC 50(μM or nM)*
result_type: EC50 (µM)
Hi! Could you send only the number? It should be in µM, unit omitted.

Fill in the blank: the reported EC50 of CC(=O)OCC[N+](C)(C)C [acetylcholine] is ____.
6.7

Numbers sourced from paper PMC3444433.
